Assay: CellTiter-Glo Luminescent Cell Viability assay in HFF
Assay type: cell-based
Conditions: human; HFF, 72 h, measured at 1 µM to 100 µM; read-out: CC50
Reported CC50 at 72 h values are given for each entry in this list.
Give the value, in units of µM, as a plain number.

>>> test_result("Nc1nc(O)c2ncn(COC(CO)CO)c2n1 [GCV, Ganciclovir, reference compound]")
247
>>> test_result("CC1CCC2C(C)C(CC(COP(=O)(Oc3ccccc3)Oc3ccccc3)CC3OC4OC5(C)CCC6C(C)CCC(C3C)C46OO5)OC3OC4(C)CCC1C32OO4 (stereo not drawn) [compound 838, Dimer isobu-OP(O)(OPh)2]")
55.8

API: the following record is the query input.
Request: What does the data say about its CC50 at 72 h? Entry: C[C@H]1[C@H](OC(=O)CCC(=O)O)O[C@@H]2O[C@@]3(C)CC[C@H]4[C@H](C)CC[C@@H]1[C@@]24OO3 [artesunate, Artesunate, reference compound]
Response: 71.7

###

Test system: HeLa (cervical adenocarcinoma)
Assay: MTT cancer cell growth assay, HeLa
Format: cell-based, human
Conditions: MTT 72 hr after treatment; read-out: CC50 HeLa
Description: HeLa (Human Cervical Adenocarcinoma), HCT116 (Human Colorectal Carcinoma) and 1205Lu (Human Melanoma) cells (all from ATCC) were maintained in DMEM containing 10% fetal bovine serum. 12–16 hours prior to drug treatment, 3×10^3 to 5×10^3 cells were seeded on each well of 96-well tissue culture plates. Drugs were diluted in DMEM containing 10% fetal bovine serum and applied to the cells. […] The absorbance of each well was recorded at 560 nm on GloMax®-Multi+ Detection System (Promega).
PROPERTY LABEL: CC50

Request: What does the data say about its CC50? Entry: C[C@H]1[C@@H](CCC(=O)Nc2ccc(F)cc2)O[C@@H]2OC3(C)CC[C@H]4[C@H](C)CC[C@@H]1[C@@]24OO3 [Artefanilide]
Response: > 50 µM

###

System: 1205Lu (melanoma)
Test: MTT cancer cell growth assay, 1205Lu
Type: cell-based, human
Details: MTT 72 hr after treatment; read-out: CC50 1205Lu
Procedure: HeLa (Human Cervical Adenocarcinoma), HCT116 (Human Colorectal Carcinoma) and 1205Lu (Human Melanoma) cells (all from ATCC) were maintained in DMEM containing 10% fetal bovine serum. 12–16 hours prior to drug treatment, 3×10^3 to 5×10^3 cells were seeded on each well of 96-well tissue culture plates. Drugs were diluted in DMEM containing 10% fetal bovine serum and applied to the cells. […] The absorbance of each well was recorded at 560 nm on GloMax®-Multi+ Detection System (Promega).
PROPERTY LABEL: CC50

Request: What does the data say about its CC50? Entry: C[C@H]1[C@@H](CCC(=O)Nc2ccc(F)cc2)O[C@@H]2OC3(C)CC[C@H]4[C@H](C)CC[C@@H]1[C@@]24OO3 [Artefanilide]
Response: > 50 µM

###

System: GCV-resistant CMV strain (UL97 mutation H520Q)
Assay: Plaque reduction assay, GCV-resistant CMV strain
Assay type: cell-based, human cytomegalovirus
Details: Human betaherpesvirus 5, read-out: EC50 of GCV for the GCV-resistant strain
From the text: The pp28-luciferase Towne strain was constructed as previously described. Briefly, the recombinant virus, which expresses luciferase under the control of UL99 (pp28) late promoter was generated by insertion of the reporter gene between the US9 and US10 open reading frames (ORFs) in the Towne genome. […] The Johns Hopkins Office of Human Subject Research Institutional Review Board determined that this research qualified for an exemption. […]
PROPERTY LABEL: pEC50
Keep it numeric: pEC50 is minus log10 of the concentration in mol/L.

Request: What does the data say about its pEC50? Entry: Nc1nc(O)c2ncn(COC(CO)CO)c2n1 [GCV, Ganciclovir, reference compound]
Response: 5.12
